- System: HeLa
- assay_method_text: cell viability (CellTiter-Glo) relative to median of lowest-dilution wells of all drugs (fraction); higher = more viable cells
- measurement_setup: drug concentration (unit not stated): 0.37; genotype: DDX11 knockout
Kindly state cell viability for each of the entries shown.
# respond with the number and nothing more

Exercise: HeLa / cell viability / Cn1cnc2c(F)c(Nc3ccc(Br)cc3Cl)c(C(=O)NOCCO)cc21 : value?
Key: 0.9

Exercise: Checklist item: cell viability tested on HeLa, entry COc1ccc(C2=N[C@@H](c3ccc(Cl)cc3)[C@@H](c3ccc(Cl)cc3)N2C(=O)N2CCNC(=O)C2)c(OC(C)C)c1 , value?
Key: 0.983

Exercise: # get_value(readout= cell viability, system= HeLa) for O=c1[nH]cc(F)c(=O)[nH]1
Key: 1.06

Exercise: Hi! What's the reported cell viability for CC(=O)Nc1cccc(-n2c(=O)n(C3CC3)c(=O)c3c(Nc4ccc(I)cc4F)n(C)c(=O)c(C)c32)c1 on HeLa?
Key: 0.861

Exercise: Form: Entry = CO[C@H]1C[C@@H]2CC[C@@H](C)[C@@](O)(O2)C(=O)C(=O)N2CCCC[C@H]2C(=O)O[C@H]([C@H](C)C[C@@H]2CC[C@@H](O)[C@H](OC)C2)CC(=O)[C@H](C)/C=C(\C)[C@@H](O)[C@@H](OC)C(=O)[C@H](C)C[C@H](C)/C=C/C=C/C=C/1C [Rapamycin (Sirolimus)] | System = HeLa | cell viability = ____
Key: 0.706

Exercise: Record Cc1sc2c(c1C)C(c1ccc(Cl)cc1)=N[C@@H](CC(=O)OC(C)(C)C)c1nnc(C)n1-2 [(+)-JQ-1] : what is its cell viability with HeLa?
Key: 0.849
